Each item that follows carries a reported growth.
Tested on: TK-10 renal
Assay: NCI-60 one-dose screen, 48 h (100 = growth as untreated, 0 = no growth, -100 = all killed)
Conditions: 10 µM unless noted
Compounds without any hit were thinned out: in the full panel of roughly 83,000, 20% have a hit.
State just the number; it will be interpreted in %.

The examples below pair each entry with its known result.
| Smiles Entry | Tested On | growth, % |
| --- | --- | --- |
| COc1cc(C)cc2oc3oc(=O)c(C(=O)c4cc5cc(Br)ccc5o4)cc3c(=O)c12 | TK-10 renal | 121 |
| O=[N+]([O-])c1cccc(/C=C/c2ccc3ccccc3n2)c1 | TK-10 renal | 64.4 |
| CC[C@@H]1NC(=O)[C@@H]2CCCCN2C(=O)[C@@H]2CCCN2C(=O)[C@@H](NC(=O)[C@H](Cc2cc(F)cc(F)c2)NC(=O)Nc2ccc(C3CC3)cc2F)[C@H](C)OC(=O)[C@@H]2C[C@@H](C)CN2C1=O | TK-10 renal | 34 |

# context switch: different molecule, same growth
# molecule COc1cc2c(c(OC)c1OC)-c1cc(I)c(O)cc1[C@@H](NC(C)=O)CC2 ; its growth = 66.9

* * *

Tested on: UACC-257 melanoma
Assay: NCI-60 one-dose screen, 48 h (100 = growth as untreated, 0 = no growth, -100 = all killed)
Settings: 10 µM unless noted
About 83,000 compounds went through this panel and 20% of them were active in at least one assay; those are over-represented in the sample as a whole. Activity calls are given as the source filed them. How the source made its calls: active means growth percent below 10; inactive means the rest.
Measured Parameter: growth

Here's what some known entries look like.
| Smiles Entry | Tested On | growth |
| --- | --- | --- |
| Cc1cccc(C[C@H](NC(=O)Nc2ccc(Cl)cc2F)C(=O)N[C@@H]2C(=O)N3C[C@H](OC(=O)CCN(C)C)C[C@H]3C(=O)N3CCCC[C@H]3C(=O)N[C@@H](C)C(=O)N3C[C@H](C)C[C@H]3C(=O)O[C@H]2C)c1 | UACC-257 melanoma | 16.3% (inactive) |
| CCN=C1C=CC(=C(c2ccc(N(CC)CC)cc2)c2ccc(N(CC)CC)cc2)c2ccccc21 | UACC-257 melanoma | -69.9% (active) |

Field growth (UACC-257 melanoma), entry Clc1ccccc1/C=N\Nc1ccccn1 : 105% (inactive)

Short answer on UACC-257 melanoma for C[n+]1c2ccccc2nc2c(N)cc(N)cc21 , growth: 92.8% (inactive)

Case O=C(Nc1ccc(Oc2ccc(F)cc2)c(Cl)c1)c1cccnn1 , UACC-257 melanoma, growth recorded as 64.3% (inactive)

* * *

Test system: A549/ATCC NSCLC
Assay: NCI-60 one-dose screen, 48 h
Conditions: 10 µM unless noted
Method: Growth inhibition of the A549/ATCC human Non-Small Cell Lung tumor cell line is measured as a screen for anti-cancer activity. Cells are grown in 96 well plates and exposed to the test compound for 48 hours. Compounds are tested at a single concentration, which is 10^-5 M for most compounds. The reported endpoint is percent growth (GI% or GIPRCNT), where numbers from 0 - 100% represent growth inhibition, and numbers from -100% - 0 represent cell death. […]
This is part of a sample that, as a whole, favours compounds with a hit. Of some 83,000 tested, about 20% had one in any assay. Calls of active or inactive are those of the source. Rule for the calls: active = growth percent below 10; inactive = the rest.
# output must be one of YES = active, NO = inactive

| Compound | Tested On | Classification |
| --- | --- | --- |
| O=S(=O)(c1ccc(N/N=C\c2ccccc2Cl)cc1)c1ccc(N/N=C/c2ccccc2Cl)cc1 | A549/ATCC NSCLC | NO |

## Input For this compound, state the assay outcome: CC1Cc2ccc(OCCN(C)C)cc2C1=O (stereo not given)
## Output NO

## Input Field: outcome | Entry: CC1=C/C(=C(\c2cc(C)c(O)c(C(=O)O)c2)c2c(Cl)cccc2Cl)C=C(C(=O)O)C1=O
## Output NO

## Input Hey, what did the test say about C=C(C)[C@@H]1CC[C@]2(COCCCN)CC[C@]3(C)[C@H](CC[C@@H]4[C@@](C)(CCCNCCCN)[C@H](C(=C)C)CC[C@]43C)[C@@H]12 ?
## Output YES

## Input Field: outcome | Entry: Cc1ccc(-c2cc(O)c(-c3ccc(C)cc3C)cc2O)c(C)c1
## Output NO

## Input Tell me the recorded outcome of this test for COc1cc2c(c(OC)c1OC)-c1ccc(NNC(N)=S)c(=O)cc1[C@@H](NC(C)=O)CC2 .
## Output NO

## Input Test call for this compound, please: COc1ncnc2c(-c3ccccc3)cn(COCc3ccccc3)c12
## Output NO

## Input Answer briefly: the call reported for COc1ccc(NC(=O)Nc2ccc(-c3cccnc3)cc2N2CCC(CO)CC2)cc1 in this assay.
## Output NO

## Input Name the outcome recorded for COc1cc(NN=C(c2ccc(O)cc2)c2ccc(O)cc2)c([N+](=O)[O-])cc1[N+](=O)[O-] in the assay.
## Output YES

## Input For this compound, state the assay outcome: C#CCOc1ccc(C2=NN(CC3CC3)C3N=C(Cl)c4ncn(CC5CC5)c4N23)cc1OCC#C (stereo not given)
## Output NO

## Input // outcome(item) with item = C=CCCC1(C)NC(=O)NC1=O (stereo not given)
## Output NO

## Input Per the assay record, what outcome was assigned to CCOC(=O)CC(c1ccccc1)C(C#N)c1ccccc1 (stereo not given) ?
## Output NO

## Input Entry O=C1/C(=C\c2cccn2Cc2ccccc2)c2ccccc2N1c1c(Cl)cccc1Cl : call = ?
## Output NO

## Input # lookup: test call for Cc1cnc([C@]23CC[C@@H](C)[C@H](C)[C@H]2C2=CC[C@@H]4[C@@]5(C)Cc6c([nH]c7ccccc67)C(C)(C)[C@@H]5CC[C@@]4(C)[C@]2(C)CC3)o1
## Output NO

## Input What did the test return for COc1ccc2[nH]c(C(=O)N3CCN(C(=O)OCc4ccc5c(Br)cc(Br)c(O)c5n4)CC3)cc2c1 ?
## Output YES
